Data credit: the supplement of paper PMC6897291

tested on: RIVA; test: growth inhibition by drug plus 177Lu-lilotomab satetraxetan (1 - RLU/untreated control) (fraction); higher = stronger inhibition; settings: 10 nM; time (day): 5; 177Lu-lilotomab satetraxetan 0.5 ug/ml
# key: entry, value: growth inhibition by drug plus 177Lu-lilotomab satetraxetan

# count of solved cases: 2
- molecule: "COc1cccc2c1C(=O)c1c(O)c3c(c(O)c1C2=O)C[C@@](O)(C(=O)CO)C[C@@H]3O[C@H]1C[C@H](N)[C@H](O)[C@H](C)O1 [Doxorubicin (Adriamycin)]"
  result: 0.909
- molecule: "CCC1=C[C@@H]2CN(C1)Cc1c([nH]c3ccccc13)[C@@](C(=O)OC)(c1cc3c(cc1OC)N(C)[C@H]1[C@@](O)(C(=O)OC)[C@H](OC(C)=O)[C@]4(CC)C=CCN5CC[C@]31[C@@H]54)C2 [Vinorelbine (Navelbine)]"
  result: 0.961

Could you now look at the following molecule, please?
Input line: What value of measured growth inhibition by drug plus 177Lu-lilotomab satetraxetan is listed for "CCCCCCCc1ccc(CCc2cccc(O)c2C(=O)O)cc1" ?
Output line: 0.619

---

Measured growth inhibition by drug alone of individual entries
tested on: RIVA; test: growth inhibition by drug alone (1 - RLU/untreated control) (fraction); higher = stronger inhibition; details: 100 nM; time (day): 4; 177Lu-lilotomab satetraxetan 0 ug/ml

Input line: Returns the measured growth inhibition by drug alone for the input molecule. Input: "CC(C)(C)c1cnc(CSc2cnc(NC(=O)C3CCNCC3)s2)o1"
Output line: -0.411

Input line: Also COc1cc([C@@H]2c3cc4c(cc3[C@@H](O[C@@H]3O[C@@H]5CO[C@@H](C)O[C@H]5[C@H](O)[C@H]3O)[C@H]3COC(=O)[C@H]23)OCO4)cc(OC)c1O [Etoposide (VP-16)] ?
Output line: 0.0869

Input line: Next entry: "Nc1cc(C(F)(F)F)c(-c2cc(N3CCOCC3)nc(N3CCOCC3)n2)cn1"
Output line: -0.324

---

test system: U-2932; assay: growth inhibition by drug alone (1 - RLU/untreated control) (fraction); higher = stronger inhibition; details: 1000 nM; time (day): 6; 177Lu-lilotomab satetraxetan 0 ug/ml
We begin with a simple list: items and their reported growth inhibition by drug alone.
I'd appreciate a reply containing only the number, no unit.

Examples with answers:
- molecule: "O=C(O)c1ccc2c(c1)nc(Nc1cccc(Cl)c1)c1ccncc12 [cx-4945 (Silmitasertib)]"
  growth inhibition by drug alone: -0.0489
- molecule: "N#Cc1ccc(NC(=O)Nc2ccccc2Br)c2n[nH]nc12"
  growth inhibition by drug alone: -0.0945
- molecule: "CCn1c(-c2nonc2N)nc2c(C#CC(C)(C)O)ncc(OC[C@H]3CCCNC3)c21"
  growth inhibition by drug alone: 0.861
- molecule: "CC(C)(C#N)c1cc(Cn2cncn2)cc(C(C)(C)C#N)c1 [Anastrozole]"
  growth inhibition by drug alone: -0.259

Next molecule, please.
Input line: Observed growth inhibition by drug alone on U-2932 for "O=C(O)Cc1cccc(OCCCN(Cc2cccc(C(F)(F)F)c2Cl)CC(c2ccccc2)c2ccccc2)c1" , please.
Output line: -0.224

---

tested on: RIVA; assay: growth inhibition by drug alone (1 - RLU/untreated control) (fraction); higher = stronger inhibition; conditions: 10 nM; time (day): 3; 177Lu-lilotomab satetraxetan 0 ug/ml
Overview of recorded growth inhibition by drug alone for various molecules
Could you keep your reply to the number by itself?

- molecule: "COc1ccc(-c2oc3cc(OC)ccc3c2C(=O)c2ccc(C#N)cc2)cc1"
  quantity-measured: "growth inhibition by drug alone"
  quantitative-readout: -0.046

Now look at this entry.
Input line: State its growth inhibition by drug alone on RIVA: CN1CCC(CNc2ccc3ncc(-c4cccc(OC(F)(F)F)c4)n3n2)CC1 [SGI-1776 free base]
Output line: -0.104

---

tested on: RIVA; assay: growth inhibition by drug alone (1 - RLU/untreated control) (fraction); higher = stronger inhibition; details: 10 nM; time (day): 5; 177Lu-lilotomab satetraxetan 0 ug/ml
# growth inhibition by drug alone listing for each entry below
Just the number, please.

Example molecules with recorded growth inhibition by drug alone:
- molecule: "C=CCn1c(=O)c2cnc(Nc3ccc(N4CCN(C)CC4)cc3)nc2n1-c1cccc(C(C)(C)O)n1"
  experimental-system: "RIVA"
  growth inhibition by drug alone: -0.175
- molecule: "CO[C@@H](C(=O)N1Cc2[nH]nc(NC(=O)c3ccc(N4CCN(C)CC4)cc3)c2C1)c1ccccc1"
  experimental-system: "RIVA"
  growth inhibition by drug alone: -0.0917
- molecule: "CC(C)C[C@H](NC(=O)[C@@H](O)[C@H](N)Cc1ccccc1)C(=O)O"
  experimental-system: "RIVA"
  growth inhibition by drug alone: -0.0244

Input line: Lab request: please report growth inhibition by drug alone under test system RIVA for "Nc1nc(Cl)nc2c1ncn2[C@H]1C[C@H](O)[C@@H](CO)O1"
Output line: 0.00678

Input line: C[C@]12CCC(=O)C=C1CC[C@@H]1[C@@H]2[C@@H](O)C[C@@]2(C)[C@H]1CC[C@]2(O)C(=O)CO [Hydrocortisone (Cortisol)] , same question.
Output line: -0.194

Input line: Similarly, "CCN1CCN(Cc2ccc(-c3cc4c(N[C@H](C)c5ccccc5)ncnc4[nH]3)cc2)CC1" ?
Output line: -0.153

Input line: One more molecule: "CS(=O)(=O)N1CCN(Cc2cc3nc(-c4cccc5[nH]ncc45)nc(N4CCOCC4)c3s2)CC1"
Output line: -0.138

Input line: // repeat for "Cc1c(C(=O)Nc2ccc(N3C[C@@H](C)O[C@@H](C)C3)nc2)cccc1-c1ccc(OC(F)(F)F)cc1" and report
Output line: -0.0773

---

tested on: U-2932; experiment: growth inhibition by drug plus 177Lu-lilotomab satetraxetan (1 - RLU/untreated control) (fraction); higher = stronger inhibition; details: 1000 nM; time (day): 5; 177Lu-lilotomab satetraxetan 1 ug/ml
quantity-measured: growth inhibition by drug plus 177Lu-lilotomab satetraxetan
// keep it numeric: no unit symbol after the value

Worked cases, answers included:
- compound: "O=C(O)C(Cc1c[nH]c2ccccc12)N1C(=O)c2ccccc2C1=O (stereo not given)"
  experimental-system: "U-2932"
  quantitative-readout: -0.0646
- compound: "CC(C)C[C@H](NC(=O)CNC(=O)c1cc(Cl)ccc1Cl)B1OC(=O)C(CC(=O)O)(CC(=O)O)O1"
  experimental-system: "U-2932"
  quantitative-readout: 0.986
- compound: "N#CCNC(=O)c1ccc(-c2ccnc(Nc3ccc(N4CCOCC4)cc3)n2)cc1"
  experimental-system: "U-2932"
  quantitative-readout: 0.206
- compound: "CNCc1ccc(-c2[nH]c3cc(F)cc4c3c2CCNC4=O)cc1"
  experimental-system: "U-2932"
  quantitative-readout: 0.124

# next compound below
Input line: Which growth inhibition by drug plus 177Lu-lilotomab satetraxetan reading was recorded for the compound "COc1ncc(-c2ccc3nccc(-c4ccnnc4)c3c2)cc1NS(=O)(=O)c1ccc(F)cc1F" ?
Output line: 0.976

---

system: U-2932; experiment: growth inhibition by drug alone (1 - RLU/untreated control) (fraction); higher = stronger inhibition; conditions: 1000 nM; time (day): 6; 177Lu-lilotomab satetraxetan 0 ug/ml
quantity-measured: growth inhibition by drug alone
Reply: number alone, nothing else.

Answered cases to consult:
- compound: "CNCc1ccc(-c2[nH]c3cc(F)cc4c3c2CCNC4=O)cc1"
  experimental-system: "U-2932"
  quantitative-readout: 0.0343
- compound: "Cn1cnc(N)c2ncnc1-2"
  experimental-system: "U-2932"
  quantitative-readout: -0.00202
- compound: "CNC(=O)c1cc(Oc2ccc(NC(=O)Nc3cc(C(C)(C)C)nn3-c3ccc4ncccc4c3)c(F)c2)ccn1 [DCC-2036 (Rebastinib)]"
  experimental-system: "U-2932"
  quantitative-readout: 0.0187

Input line: // lookup growth inhibition by drug alone | system=U-2932 | key= "Nc1nc(OCc2cc(Br)cs2)c2[nH]cnc2n1"
Output line: -0.195

Input line: Now give it for "Cc1nc(N)sc1-c1ccnc(Nc2ccc(N3CCOCC3)cc2)n1" too.
Output line: 0.253

---

# reported growth inhibition by drug alone; entries follow
system: RIVA; assay: growth inhibition by drug alone (1 - RLU/untreated control) (fraction); higher = stronger inhibition; settings: 10 nM; time (day): 5; 177Lu-lilotomab satetraxetan 0 ug/ml
Structures can show the parent of a compound that is named as a salt.

These recorded examples may help you get a feel for the data.
- molecule: "CCCS(=O)(=O)Nc1ccc(F)c(C(=O)c2c[nH]c3ncc(-c4ccc(Cl)cc4)cc23)c1F [Vemurafenib (PLX4032)]"
  growth inhibition by drug alone: -0.165
- molecule: "Nc1cccc2c1C(=O)N(C1CCC(=O)NC1=O)C2=O (centres undefined) [Pomalidomide]"
  growth inhibition by drug alone: -0.0766
- molecule: "CNNCc1ccc(C(=O)NC(C)C)cc1 [Procarbazine hydrochloride (Matulane)]"
  growth inhibition by drug alone: 0.0155

Lab note: next molecule to report on.
Input line: Can you look up the measured growth inhibition by drug alone of O=C(O)C1(C(=O)O)CCC1.[NH2-].[NH2-].[Pt+2] [Carboplatin] for me?
Output line: -0.162
